tested on: CCRF-CEM leukemia; assay: NCI tumour cell line growth inhibition, 48 h
compounds and their reported TGI

COC(=O)c1cc(Br)c(Br)n1C :: > 100 µM
CC12CCCC(O)C1CCC1=CC3(CCC12)SCCS3 (centres undefined) :: > 10 µM

[Q] Which measured TGI value corresponds to CC(=O)Nc1ccc(-c2nc3ccccc3s2)cc1Br ?
[A] > 100 µM

[Q] Which measured TGI value corresponds to CCOC(=O)C1(CO)CSCCSC1 ?
[A] > 100 µM

[Q] Which measured TGI value corresponds to COc1cc[nH]c1/C=C1\C(=O)Nc2ccccc21 ?
[A] > 25 µM

[Q] Which measured TGI value corresponds to CC(=O)OC1=NN=C2COC(c3ccccc3OC(C)=O)=NN2C1 ?
[A] > 50 µM

[Q] Which measured TGI value corresponds to N=c1c2ccccc2nc2oc3cc([N+](=O)[O-])ccc3n12 ?
[A] > 100 µM

[Q] Which measured TGI value corresponds to CC(=O)c1c(-c2ccc(Cl)cc2)c(-c2ccc(Cl)cc2)n[nH]c1=O ?
[A] > 100 µM

[Q] Which measured TGI value corresponds to Cc1[nH]c(=O)[nH]c(=O)c1/C=C/C(=O)NC(CO)CC(C)C (centres undefined) ?
[A] > 375 µM

[Q] Which measured TGI value corresponds to CCCCCCCCCCCCCCCCP(=O)(O)OCC(N)C(=O)O (centres undefined) ?
[A] > 100 µM

[Q] Which measured TGI value corresponds to CN1CCCC2C(c3ccccc3)C(C3=NCCCC3)C(c3ccccc3)CC21 (centres undefined) ?
[A] > 100 µM

[Q] Which measured TGI value corresponds to CCOC(=O)Sc1ncnc2nc[nH]c12 ?
[A] 13.4 µM

[Q] Which measured TGI value corresponds to O=C(/C=C/c1cccc([N+](=O)[O-])c1)N1CCN(CCOC(c2ccccc2)c2ccccc2)CC1 ?
[A] 65.4 µM

[Q] Which measured TGI value corresponds to COc1cc(C2=NN(C(C)=O)C(c3ccc(OC(C)=O)cc3OC(C)=O)O2)c(OC(C)=O)c2ccccc12 (centres undefined) ?
[A] 8.03 µM

[Q] Which measured TGI value corresponds to COc1nn(Cc2ccccn2)c2ccc([N+](=O)[O-])cc12 ?
[A] > 100 µM

[Q] Which measured TGI value corresponds to Cn1c(-c2cccs2)cc(-c2cccs2)c1-c1cccs1 ?
[A] > 100 µM

[Q] Which measured TGI value corresponds to CC(C)CCCC(C)[C@H]1CC[C@H]2n3c(nnc3-c3ccccc3)CCC[C@]12C (some centres undefined) ?
[A] 24.6 µM

[Q] Which measured TGI value corresponds to CN(C)P(=O)(/C(N)=N/Nc1ccc([N+](=O)[O-])cc1)N(C)C ?
[A] > 100 µM

[Q] Which measured TGI value corresponds to O=C1c2ccccc2C(=O)C2NC(CCCCCSSCCCCCC3=NC4C(=O)c5ccccc5C(=O)C4N3)=NC12 (centres undefined) ?
[A] > 100 µM

[Q] Which measured TGI value corresponds to COC(=O)C(=O)C(C(=O)C(=O)Nc1ccccc1C(N)=O)c1nc2ccc(Cl)cc2[nH]c1=O (centres undefined) ?
[A] > 100 µM

[Q] Which measured TGI value corresponds to O=[N+]([O-])/C(C(Cl)=C(Cl)Cl)=C1\Nc2ccc([N+](=O)[O-])cc2N1 ?
[A] 56.2 µM

[Q] Which measured TGI value corresponds to CCSc1nnc(Sc2c3ccccc3nc3ccccc23)s1 ?
[A] > 100 µM

[Q] Which measured TGI value corresponds to Cc1c2c(cc3c1C(=O)C(=O)C([C@@H](C)CO)=C3O)C(C)(C)CCC2 ?
[A] 40.7 µM

[Q] Which measured TGI value corresponds to Cc1cc(C)c(C(=O)CC(=O)c2cccnc2)c(C)c1 ?
[A] 45.8 µM
